Provenance of the data: the supplement of paper PMC7214452

Test system: OCI-MY5/CRBN (cancer type: MM)
Assay: normalized area under the dose-response curve (viability relative to DMSO control) (fraction); higher = less sensitive (more viable cells)
Details: exposure time not given
Cut-off 0.8 on normalized area under the dose-response curve, inclusive. At or above means 1; below means 0.

For this compound, is measured normalized area under the dose-response curve 0.8 or higher? `COc1cc(N2CCC(N3CCN(C)CC3)CC2)ccc1Nc1ncc(Cl)c(Nc2ccccc2P(C)(C)=O)n1`
1

New cases:
For this compound, is measured normalized area under the dose-response curve 0.8 or higher? `COc1cc(Nc2ncc3c(n2)-c2ccc(Cl)cc2C(c2c(F)cccc2OC)=NC3)ccc1C(=O)O`
1
